Documented inhibition across a set of compounds
- TEST TARGET: Glucose transporter (Leishmania mexicana) (UniProt O61059)
- EXPERIMENT SUMMARY: ST_JUDE_LEISH: Cytotoxicity at 2uM final concentration against transgenic Leishmania Mexicana promastigotes LmGT2 that are glucose transport deficient and complemented with the L. Mexicana glucose transporter 2. Activity is measured by DNA content using SYBR green in vitro
- Format: functional
Output spec: scalar in %, unitless text.

- COMPOUND: "N#Cc1cccc(NC(=O)Nc2ccc(-c3csc(-c4nc5ccccc5[nH]4)c3)cc2)c1"
  READOUT UNITS: "%"
  inhibition: 3.91
- COMPOUND: "Cc1cc(OCCCN2CCC(NS(=O)(=O)c3ccc(Cl)c(Cl)c3)C2)c2ccccc2n1 (centres undefined)"
  READOUT UNITS: "%"
  inhibition: 3.91
- COMPOUND: "OCC1CCN(Cc2cccc(-c3ccc(-c4nc5cc(C(F)(F)F)ccc5[nH]4)s3)c2)CC1"
  READOUT UNITS: "%"
  inhibition: 3.14
- COMPOUND: "COc1cc2nc(N3CCC(CNC(=O)c4ccc(-c5ccc(-c6noc(C)n6)cc5C)cc4)CC3)nc(N)c2cc1OC"
  READOUT UNITS: "%"
  inhibition: 5.29
- COMPOUND: "c1ccc(Oc2ccc(Nc3ccnc4cc(-c5csc(CNCCN6CCOCC6)n5)ccc34)cc2)cc1"
  READOUT UNITS: "%"
  inhibition: -0.68
- COMPOUND: "O=C(Nc1ccc(N2CCCN(Cc3cccc(F)c3)CC2)cc1)c1ccc(F)cc1"
  READOUT UNITS: "%"
  inhibition: 5.51
- COMPOUND: "O=C(NC1CCN(Cc2ccccc2)CC1)c1cc(-c2ccncc2)nc2ccc(Cl)cc12"
  READOUT UNITS: "%"
  inhibition: 0.14
- COMPOUND: "Cc1ccc(-c2cc3nc4c(c(NCCCn5ccnc5)n3n2)CCC4)cc1"
  READOUT UNITS: "%"
  inhibition: 0.92

-- ask Value lookup for inhibition; key = Cc1cccc2nc(-c3cccc(-c4cccc(NC(=O)c5csnn5)c4)c3)[nH]c12
-- reply -0.76

-- ask Likewise for O=C(NCCN1CCC(c2ccncc2)CC1)c1cccc(Nc2nccc(Nc3ccc(Oc4ccccc4)cc3)n2)c1 ?
-- reply -0.06

-- ask Likewise for COc1cc2c(cc1OC)C(c1ccc(Br)cc1)CN(C)CC2 (centres undefined) ?
-- reply 4.35

-- ask Likewise for CC(=O)Nc1ncc(C(=O)Nc2cccc(-c3ccc(-c4nc5cc(C(F)(F)F)ccc5[nH]4)cc3)c2)s1 ?
-- reply -0.63

----------
Documented inhibition across a set of molecules
- TEST TARGET: Solute carrier family 2, facilitated glucose transporter member 1 (Homo sapiens)
- EXPERIMENT SUMMARY: ST_JUDE_LEISH: Cytotoxicity at 2uM final concentration against transgenic Leishmania Mexicana promastigotes LmGLUT1 that are glucose transport deficient and complemented with the human glucose transporter GLUT1. Activity is measured by DNA content using SYBR green in vitro
- Format: functional
Output spec: scalar in %, unitless text.

Some entries whose results are on file:
- MOLECULE: "Cn1c(N)c(C(=O)CSc2ncc(-c3ccc(F)cc3)n2Cc2ccccc2)c(=O)n(C)c1=O"
  inhibition [%]: 2.53
- MOLECULE: "CC(=O)Nc1ccc(C(=O)Nc2cccc(-c3cccc(-c4nc5cc(C(F)(F)F)ccc5[nH]4)c3)c2)cn1"
  inhibition [%]: -0.64
- MOLECULE: "CC(CN1CCN(C)CC1)C(=O)Nc1cccc(-c2ccc(-c3nc4ccccc4[nH]3)cc2)c1 (stereo not given)"
  inhibition [%]: 0.63
- MOLECULE: "COc1ccc(Br)cc1/C=C/C(=O)Nc1cccc(C2CCN(C)CC2)c1"
  inhibition [%]: 3.43

-- ask Value lookup for inhibition; key = O=C(NC1CCN(Cc2ccccc2O)C1)c1ccc(-c2ccccc2)cc1 (stereo not given)
-- reply 0.98

----------
- TEST TARGET: Hexose transporter 1 (Plasmodium falciparum)
- EXPERIMENT SUMMARY: ST_JUDE_LEISH: Cytotoxicity at 2uM final concentration against transgenic Leishmania Mexicana promastigotes LmPfHT that are glucose transport deficient and complemented with the Plasmodium falciparum hexose transporter. Activity is measured by DNA content using SYBR green in vitro
- Type: functional
Documented inhibition across a set of compounds
Output spec: scalar in %, unitless text.

- COMPOUND: "CN(C)CCCNc1ncnc2c1[nH]c1ccc(Br)cc12"
  RESULT NUMBER: 2.41
- COMPOUND: "CC(Sc1nc(-c2ccccc2)c(-c2ccccc2)o1)C(=O)NC1CC1 (stereo not given)"
  RESULT NUMBER: 1.75
- COMPOUND: "CCN(CC)CCN(Cc1ccc(-c2ccc(Cl)cc2)cc1)C(=O)Cn1c(CCc2cccc(F)c2F)nc(=O)c2ccccc21"
  RESULT NUMBER: -2.71

-- ask Value lookup for inhibition; key = CCOC(=O)c1ccc(OCc2ccc(-c3ccccc3)cc2)cc1
-- reply -0.13

-- ask Likewise for COc1cccc(C2CCN(CCN3CCC(NC(=O)c4ccc(-c5ccc(C#N)cc5)cc4)CC3)CC2)c1 ?
-- reply 0.31

-- ask Likewise for CCNc1cc(C)nc(Nc2ccc(NS(=O)(=O)c3ccccc3)cc2)n1 ?
-- reply 11

----------
- TEST TARGET: Solute carrier family 2, facilitated glucose transporter member 1 (Homo sapiens) (UniProt P11166)
- Sequence (P11166 whole entry): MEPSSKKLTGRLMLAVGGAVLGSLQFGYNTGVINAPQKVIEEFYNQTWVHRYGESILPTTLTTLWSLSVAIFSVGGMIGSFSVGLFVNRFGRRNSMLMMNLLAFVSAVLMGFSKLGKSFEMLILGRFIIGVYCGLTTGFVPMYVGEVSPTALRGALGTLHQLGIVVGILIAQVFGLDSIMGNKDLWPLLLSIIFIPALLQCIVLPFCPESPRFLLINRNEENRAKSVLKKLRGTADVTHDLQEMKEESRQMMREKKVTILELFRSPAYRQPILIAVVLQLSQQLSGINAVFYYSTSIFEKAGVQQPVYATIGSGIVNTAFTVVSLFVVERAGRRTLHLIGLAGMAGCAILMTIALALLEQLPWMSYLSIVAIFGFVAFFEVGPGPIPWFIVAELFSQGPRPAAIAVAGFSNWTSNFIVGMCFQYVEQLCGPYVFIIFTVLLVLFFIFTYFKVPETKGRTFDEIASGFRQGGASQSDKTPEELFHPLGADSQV
- EXPERIMENT SUMMARY: ST_JUDE_LEISH: Cytotoxicity at 2uM final concentration against transgenic Leishmania Mexicana promastigotes LmGLUT1 that are glucose transport deficient and complemented with the human glucose transporter GLUT1. Activity is measured by DNA content using SYBR green in vitro
- Type: functional
MEASURED PROPERTY: inhibition (%)
Output spec: scalar in %, unitless text.

Some entries whose results are on file:
- COMPOUND: "CC(C)C(NC(=O)c1c(F)cccc1F)C(=O)Nc1ccc(Cc2nc3ccccc3s2)cc1 (centres undefined)"
  inhibition (%): -1.47
- COMPOUND: "O=C(N[C@@H](CC1CCCCC1)C(=O)NCCN1CCCCC1)c1ccc(O)c(-c2cccc(C(F)(F)F)c2)c1"
  inhibition (%): 2.41

-- ask Value lookup for inhibition; key = COc1ccc(CNCCc2cccs2)cc1-c1cccc(S(=O)(=O)NCCN2CCCC2)c1
-- reply 2.17

-- ask Likewise for O=S(=O)(Nc1ccc2nccc(N3CCNCC3)c2c1)c1ccc2c(Cl)cccc2c1 ?
-- reply 0.28

-- ask Likewise for CC(C)c1ccc(NC(=O)c2ccc(NCCCN(C)Cc3ccccc3)c([N+](=O)[O-])c2)cc1 ?
-- reply 0.47

-- ask Likewise for COc1cc(NC(=O)N2CCc3ccc(OCCN4CCCCC4)cc32)cc(C(F)(F)F)c1 ?
-- reply 0.69

-- ask Likewise for COc1cccc(C2CCN(CCN3CCC(NC(=O)c4ccc(-c5ccc(C#N)cc5)cc4)CC3)CC2)c1 ?
-- reply -1.18

-- ask Likewise for COc1ccc(NC(=O)[C@H](Cc2ccccc2)Nc2nc(NCCN3CCCC3)ncc2C)cc1 ?
-- reply 1.71

-- ask Likewise for Cc1nc(-c2nc(NCCc3c(C)noc3C)ncc2-c2ccsc2)sc1C ?
-- reply 1.02

----------
- TEST TARGET: Solute carrier family 2, facilitated glucose transporter member 1 (Homo sapiens) (UniProt P11166)
- EXPERIMENT SUMMARY: ST_JUDE_LEISH: Cytotoxicity at 2uM final concentration against transgenic Leishmania Mexicana promastigotes LmGLUT1 that are glucose transport deficient and complemented with the human glucose transporter GLUT1. Activity is measured by DNA content using SYBR green in vitro
- Assay type: functional
MEASURED PROPERTY: inhibition (%)
Output spec: scalar in %, unitless text.

- MOLECULE: "CN(Cc1ccncc1)C(Cc1ccccc1)C1CCN(Cc2ccc(O)c(Cl)c2)CC1 (stereo not given)"
  inhibition / %: 1.88
- MOLECULE: "CCOC(=O)c1cnc2c(OC)cc(OC)c(Cl)c2c1Nc1cccc(C)c1"
  inhibition / %: 9.4
- MOLECULE: "O=C(NCc1ccc2c(c1)OCO2)c1nn(CCN2CCC(N3CCCC3)CC2)cc1-c1ccc(Cl)c(Cl)c1"
  inhibition / %: 2.53
- MOLECULE: "N#Cc1ccc(N2CCN(C(=O)c3cccc(-c4noc(C(F)(F)F)n4)c3)CC2)nc1"
  inhibition / %: 0.27

API: the following record is the query input.
-- ask Value lookup for inhibition; key = O=C(/C=C/c1ccc(Cl)c(Cl)c1)NCCCCCN1CCCC(C(=O)Nc2ccc(F)c(Cl)c2)C1 (stereo not given)
-- reply 3.02

----------
Documented inhibition across a set of compounds
- TEST TARGET: Glucose transporter (Leishmania mexicana) (UniProt O61059)
- EXPERIMENT SUMMARY: ST_JUDE_LEISH: Cytotoxicity at 2uM final concentration against transgenic Leishmania Mexicana promastigotes LmGT2 that are glucose transport deficient and complemented with the L. Mexicana glucose transporter 2. Activity is measured by DNA content using SYBR green in vitro
- Assay type: functional
Output spec: scalar in %, unitless text.

Some entries whose results are on file:
- COMPOUND: "COCCn1c(SC(C)C(=O)Nc2cc(C(F)(F)F)ccc2Cl)nc2ccccc2c1=O (stereo not given)"
  READOUT UNITS: "%"
  inhibition: -0.21
- COMPOUND: "COc1ccc(-c2cc(C(=O)N[C@@H](Cc3ccccc3)C(=O)NCCN3CCCCC3)ccc2O)cc1"
  READOUT UNITS: "%"
  inhibition: 4.04
- COMPOUND: "CNC(=O)c1ccccc1Nc1nc(Nc2cccnc2)ncc1C"
  READOUT UNITS: "%"
  inhibition: -0.69
- COMPOUND: "O=C(NCC1CCC(CNCCc2ccccc2)CC1)Nc1ccc(Cl)c(Cl)c1 (stereo not given)"
  READOUT UNITS: "%"
  inhibition: -2.11
- COMPOUND: "CC(=O)NCCNCc1cccc(C(=O)NCc2cccc(C(F)(F)F)c2)c1"
  READOUT UNITS: "%"
  inhibition: 4.88

-- ask For Glucose transporter (Leishmania mexicana) (UniProt O61059), provide inhibition of COc1ccc(NC(=O)c2ccc(Br)c(C)c2)cc1N1CCN(CCCCc2ccccc2)CC1 please.
-- reply 0.85

-- ask Likewise for Cc1nc(Nc2ccc(C)c(Cl)c2)c2c(C)noc2n1 ?
-- reply 4.71

-- ask Likewise for O=C(NCc1ccc(C(=O)NCc2cccc3ccccc23)cc1)c1ccc(O)c(-c2ccc(Cl)c(Cl)c2)c1 ?
-- reply 0.96

-- ask Likewise for Cc1cc2nc(-c3ccc(/C=C/C(=O)NCc4ccc(Cl)c(Cl)c4)cc3)[nH]c2cc1C ?
-- reply 4.96

-- ask Likewise for O=C(NCc1ccc(Cl)c(Cl)c1)c1cccc(C2CCCN(Cc3ccc4[nH]cnc4c3)C2)c1 (stereo not given) ?
-- reply -0.63
